System: H69/LX4
PROTOCOL_NOTES: MTT assay, 7-day exposure: sensitivity of resistant (MDR) cells to chemotherapeutic agents with or without MDR inhibitor (Example 1)
Assay type: cell-based
CONDITION_LABEL: Homo sapiens, 168 h; H69/LX4; with B669 0.5 µg/ml; 7 day exposure; read-out: IC50 of chemotherapeutic agent, MDR INHIBITOR B669
MEASUREMENT_KIND: IC50

COMPOUND | TESTED_TARGET | RESULT
COc1cccc2c1C(=O)c1c(O)c3c(c(O)c1C2=O)C[C@@](O)(C(C)=O)C[C@@H]3O[C@H]1C[C@H](N)[C@H](O)[C@H](C)O1 [Daunorubicin] | H69/LX4 | 15 ng/mL
COc1cccc2c1C(=O)c1c(O)c3c(c(O)c1C2=O)C[C@@](O)(C(=O)CO)C[C@@H]3O[C@H]1C[C@H](N)[C@H](O)[C@H](C)O1 [Doxorubicin] | H69/LX4 | 16 ng/mL
COc1cc([C@@H]2c3cc4c(cc3[C@@H](O[C@@H]3O[C@@H]5CO[C@@H](C)O[C@H]5[C@H](O)[C@H]3O)[C@H]3COC(=O)[C@H]23)OCO4)cc(OC)c1O [Etoposide] | H69/LX4 | 0.09 ng/mL
CN(Cc1cnc2nc(N)nc(N)c2n1)c1ccc(C(=O)N[C@@H](CCC(=O)O)C(=O)O)cc1 [Methotrexate] | H69/LX4 | 3500 ng/mL
CC[C@]1(O)C[C@@H]2CN(CCc3c([nH]c4ccccc34)[C@@](C(=O)OC)(c3cc4c(cc3OC)N(C)[C@H]3[C@@](O)(C(=O)OC)[C@H](OC(C)=O)[C@]5(CC)C=CCN6CC[C@]43[C@@H]65)C2)C1 [Vinblastine] | H69/LX4 | 8 ng/mL
CO[C@@]12[C@H](COC(N)=O)C3=C(C(=O)C(C)=C(N)C3=O)N1C[C@@H]1N[C@@H]12 [Mitomycin C] | H69/LX4 | 40 ng/mL
